protocol.text: In vivo oral pharmacokinetic study of RPG without or with QCT in rats
Set-up: species or system Sprague-Dawley rats
measurement.context: Sprague-Dawley, rat, plasma, po, 0.4 mg/kg, rats, RPG 0.4 mg/kg oral with QCT 100 mg/kg oral
assay.readout: AUC
Field note: include the unit after the figure.

Asked: Identify the reported AUC for the following entry. CCOc1cc(CC(=O)N[C@@H](CC(C)C)c2ccccc2N2CCCCC2)ccc1C(=O)O [RPG, Repaglinide]
Given back: 803 ng·h/mL
